Target: human B1R receptor (Homo sapiens, UniProt P46663)
Construct: host or cells: CHO K1 cells (Chinese hamster ovary), stably transfected
Sequence (P46663 whole entry): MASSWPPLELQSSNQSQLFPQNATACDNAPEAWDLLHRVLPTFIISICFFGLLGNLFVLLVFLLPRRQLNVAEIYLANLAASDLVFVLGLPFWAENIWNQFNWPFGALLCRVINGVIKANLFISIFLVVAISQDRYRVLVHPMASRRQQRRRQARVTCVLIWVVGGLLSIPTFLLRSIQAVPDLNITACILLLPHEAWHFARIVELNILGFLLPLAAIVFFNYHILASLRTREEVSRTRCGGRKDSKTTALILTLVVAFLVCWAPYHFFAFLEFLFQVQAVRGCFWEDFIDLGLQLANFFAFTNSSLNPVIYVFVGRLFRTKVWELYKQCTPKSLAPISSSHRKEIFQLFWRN
Test: Functional study on the bradykinin receptor 1 (B1R), FLIPR Ca2+ assay, hB1R cells
Assay type: cell-based
Conditions: CHO-K1, test substance 10 μM, agonist Lys-Des-Arg9-bradykinin 0.5 nM, % inhibition compared with the maximum achievable inhibition, read-out: B1R Antagonism, human [10 μM] % Inhibition
Entries and their inhibition at 10 µM
Only the number, expressed in %, is required.

Reference set, count: 10
{"compound": "COc1cc(C)c(S(=O)(=O)N2Cc3ccccc3C[C@H]2COCC(=O)N2CCN(CC3CCN(C)CC3)CC2)c(C)c1", "unit.of.measure": "%", "number": 105}
{"compound": "O=C(COCC1CCCN1S(=O)(=O)c1cc(Cl)sc1Cl)N1CCN(Cc2ccccc2)CC1 (stereo not shown)", "unit.of.measure": "%", "number": 36.2}
{"compound": "COc1cc(C)c(S(=O)(=O)N2CCCCC2COCC(=O)NCc2cccc(N3CCN(C)CC3)c2)c(C)c1 (stereo not shown)", "unit.of.measure": "%", "number": 103}
{"compound": "Cc1cc(C)c(S(=O)(=O)N2CCCCC2COCC(=O)NCc2ccccc2N2CCN(C)CC2)c(C)c1 (stereo not shown)", "unit.of.measure": "%", "number": 45.3}
{"compound": "COc1cc(C)c(S(=O)(=O)N2CCCC2COCC(=O)NCc2ccc(N(C)C)cc2)c(C)c1 (stereo not shown)", "unit.of.measure": "%", "number": 1.85}
{"compound": "CCN1CCN(C(=O)COCC2CCCN2S(=O)(=O)c2c(C)cc(OC)cc2C)CC1 (stereo not shown)", "unit.of.measure": "%", "number": 98.8}
{"compound": "CN1CCC(N2CCN(C(=O)COCC3CCCCN3S(=O)(=O)c3cccc(C(F)(F)F)c3)CC2)CC1 (stereo not shown)", "unit.of.measure": "%", "number": 92.6}
{"compound": "Cc1cc(C)c(S(=O)(=O)N2CCCCC2COCC(=O)N2CCN(C3CCN(C)CC3)CC2)c(C)c1 (stereo not shown)", "unit.of.measure": "%", "number": 102}
{"compound": "Cc1cc(C)nc(CC2CCCN2C(=O)COCC2CCCCN2S(=O)(=O)c2c(Cl)cccc2Cl)c1 (stereo not shown)", "unit.of.measure": "%", "number": 102}
{"compound": "COc1cc(C)c(S(=O)(=O)N2CCCCC2COCC(=O)N2CCN(Cc3ccc(Br)cc3)CC2)c(C)c1 (stereo not shown)", "unit.of.measure": "%", "number": 103}

inhibition at 10 µM for CC(C)N(CCN1CCN(C(=O)COCC2CCCCN2S(=O)(=O)c2c(Cl)cccc2Cl)CC1)C(C)C (stereo not shown) ?
104

Please do the same for O=C(COCC1Cc2ccccc2CN1S(=O)(=O)c1ccc(Cl)cc1Cl)N1CCC(N2CCOCC2)CC1 (stereo not shown) as well.
55.4

Please do the same for O=C(COCC1CCCCN1S(=O)(=O)c1c(Cl)cccc1Cl)N1CCC(CCN2CCCCC2)CC1 (stereo not shown) as well.
104
